// pIC50 lookup, one value per entry
- experimentalTarget: Indoleamine 2,3-dioxygenase 1 (Homo sapiens, UniProt P14902)
- Sequence (P14902 whole entry): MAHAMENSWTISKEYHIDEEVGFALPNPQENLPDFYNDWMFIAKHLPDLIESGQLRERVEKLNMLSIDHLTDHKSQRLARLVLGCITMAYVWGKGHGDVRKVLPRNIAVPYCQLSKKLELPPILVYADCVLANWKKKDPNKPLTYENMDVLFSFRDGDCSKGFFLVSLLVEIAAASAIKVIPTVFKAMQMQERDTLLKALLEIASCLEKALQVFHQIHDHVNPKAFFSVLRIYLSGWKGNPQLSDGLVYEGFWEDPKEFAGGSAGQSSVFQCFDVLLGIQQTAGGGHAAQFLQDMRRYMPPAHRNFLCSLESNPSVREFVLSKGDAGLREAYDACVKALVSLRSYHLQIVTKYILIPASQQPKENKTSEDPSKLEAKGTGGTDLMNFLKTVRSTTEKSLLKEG
- procedureText: Inhibition of IDO1 in IFNgamma-stimulated human HeLa cells preincubated for 2 hrs followed by recombinant human IFNgamma stimulation and measured after 18 hrs by fluorescence based microplate reader assay
Scale for pIC50: -log10 of concentration given in mol/L; no unit attached.

Observe how each entry below is paired with its result.
chemicalString: CC[C@@H](NC(=O)c1ccc(OC)nc1)[C@H]1CC[C@@H](c2ccnc(OC)c2C(F)F)CC1
experimentalTarget: Indoleamine 2,3-dioxygenase 1 (Homo sapiens, UniProt P14902)
pIC50: 8.70

chemicalString: CC[C@@H](NC(=O)c1ccc(Cl)cc1)[C@H]1CC[C@H](c2ccc(OC(F)F)cc2)CC1
experimentalTarget: Indoleamine 2,3-dioxygenase 1 (Homo sapiens, UniProt P14902)
pIC50: 7.85

chemicalString: Cc1cc([C@H]2CC[C@@H]([C@@H](C)NC(=O)c3ccc(Cl)cc3)CC2)ccn1
experimentalTarget: Indoleamine 2,3-dioxygenase 1 (Homo sapiens, UniProt P14902)
pIC50: 7.92

chemicalString: Cc1cnccc1[C@H]1CC[C@@H]([C@@H](C)NC(=O)c2ccc(Cl)cc2)CC1
experimentalTarget: Indoleamine 2,3-dioxygenase 1 (Homo sapiens, UniProt P14902)
pIC50: 8.15

chemicalString: CC[C@@H](NC(=O)c1ccc(Cl)cc1)[C@H]1CC[C@@H](c2cccc3c2OC(F)(F)O3)CC1
experimentalTarget: Indoleamine 2,3-dioxygenase 1 (Homo sapiens, UniProt P14902)
pIC50: 7.37

Req: Value lookup for pIC50; key = "CC[C@@H](NC(=O)c1ccc(Cl)cc1)[C@H]1CC[C@H](c2cccc(C)n2)CC1"
Resp: 7.32

Req: Could you tell me which pIC50 is on file for "COC[C@@H](NC(=O)c1ccc(Cl)cc1)[C@H]1CC[C@@H](c2ccnc(OC)c2C(F)F)CC1" ?
Resp: 8.70

Req: Name the reported pIC50 value associated with the compound "CC[C@@H](NC(=O)c1ccc(Cl)cc1)[C@H]1CC[C@H](c2cncc(OC)c2)CC1"
Resp: 7.72

---

- experimentalTarget: Cytochrome P450 (CYP) (Homo sapiens, UniProt P04798+P05177+P05181+P08684+P10632+P10635+P11509+P11712+P13584+P20813+P20815+P20853+P24462+P24903+P33260+P33261+P51589+P78329+P98187+Q02928+Q08477+Q16678+Q16696+Q5TCH4+Q6VVX0+Q7Z449+Q8TAV3+Q96SQ9+Q9HB55)
- procedureText: Metabolic stability assessed as human CYP-mediated metabolism by measuring half life
- Type: ADME, protein assay
measurementType: half-life (min)
The reply should contain only the number, in min.

Req: half-life lookup needed for "CC[C@@H](NC(=O)c1ccc(OC)nc1)[C@H]1CC[C@@H](c2ccnc(OC)c2C(F)F)CC1" , thanks.
Resp: 32

---

- experimentalTarget: Cytochrome P450 2C19 (Homo sapiens)
- Sequence (P33261 whole entry): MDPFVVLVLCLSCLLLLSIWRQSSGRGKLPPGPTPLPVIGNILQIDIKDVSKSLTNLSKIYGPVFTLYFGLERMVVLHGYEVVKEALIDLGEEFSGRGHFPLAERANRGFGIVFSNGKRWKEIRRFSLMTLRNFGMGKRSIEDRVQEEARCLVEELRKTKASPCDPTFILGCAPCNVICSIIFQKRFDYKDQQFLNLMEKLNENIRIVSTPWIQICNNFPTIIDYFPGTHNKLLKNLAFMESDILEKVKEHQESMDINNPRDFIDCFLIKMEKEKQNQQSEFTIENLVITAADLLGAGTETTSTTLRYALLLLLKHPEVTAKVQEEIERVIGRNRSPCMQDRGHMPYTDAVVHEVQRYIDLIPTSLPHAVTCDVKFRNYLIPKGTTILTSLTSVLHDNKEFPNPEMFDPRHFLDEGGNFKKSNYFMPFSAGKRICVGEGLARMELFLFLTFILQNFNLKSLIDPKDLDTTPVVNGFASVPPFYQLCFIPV
measurementType: pIC50
In textbook form, pIC50 equals minus log to base ten of the concentration in mol/L.

Req: Lookup: pIC50 / Cytochrome P450 2C19 (Homo sapiens) / "CC[C@@H](NC(=O)c1ccc(OC)nc1)[C@H]1CC[C@@H](c2ccnc(OC)c2C(F)F)CC1"
Resp: 5.02

---

- procedureText: AUC in rat at 10 mg/kg, po
- Type: ADME, organism-based
- Design: dose 10 mg/kg
- conditionLabel: in vivo
measurementType: AUC (µM·h)
Give the value, in units of µM·h, as a plain number.

Req: Given the compound "CC[C@@H](NC(=O)c1ccc(OC)nc1)[C@H]1CC[C@@H](c2ccnc(OC)c2C(F)F)CC1" , what is its reported AUC?
Resp: 8.7

---

- procedureText: AUC in rat at 0.5 mg/kg, iv
- Format: ADME, organism-based
- Parameters: dose 0.5 mg/kg
- conditionLabel: in vivo
measurementType: AUC (µM·h)
Numbers only; they are read as µM·h.

Req: Reported AUC for "CC[C@@H](NC(=O)c1ccc(OC)nc1)[C@H]1CC[C@@H](c2ccnc(OC)c2C(F)F)CC1" : what is it?
Resp: 1.3

---

- experimentalTarget: Indoleamine 2,3-dioxygenase 1 (Mus musculus)
- Sequence (P28776 whole entry): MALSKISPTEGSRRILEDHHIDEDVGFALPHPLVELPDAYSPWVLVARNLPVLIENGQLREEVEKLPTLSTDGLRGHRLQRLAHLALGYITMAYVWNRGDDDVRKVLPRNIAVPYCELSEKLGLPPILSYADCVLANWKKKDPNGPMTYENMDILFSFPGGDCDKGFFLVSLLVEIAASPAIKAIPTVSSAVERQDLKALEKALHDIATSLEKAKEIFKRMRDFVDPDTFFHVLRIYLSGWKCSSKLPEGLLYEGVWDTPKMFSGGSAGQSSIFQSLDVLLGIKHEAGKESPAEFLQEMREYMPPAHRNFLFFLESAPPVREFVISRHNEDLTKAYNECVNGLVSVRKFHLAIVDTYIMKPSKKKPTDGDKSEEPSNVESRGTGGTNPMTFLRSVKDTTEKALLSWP
- procedureText: Inhibition of IDO1 in IFNgamma-stimulated mouse M109 cells preincubated for 2 hrs followed by recombinant murine IFNgamma stimulation and measured after 18 hrs by fluorescence based microplate reader assay
// boundary case: IC50 equal to 20 nM maps to f; strictly smaller maps to t

chemicalString: CC[C@@H](NC(=O)c1ccc(Cl)cc1)[C@H]1CC[C@@H](c2cccnc2OC)CC1
experimentalTarget: Indoleamine 2,3-dioxygenase 1 (Mus musculus)
labelValue: f

chemicalString: CC[C@@H](NC(=O)c1ccc(Cl)cc1)[C@H]1CC[C@H](c2cccc(C(F)(F)F)n2)CC1
experimentalTarget: Indoleamine 2,3-dioxygenase 1 (Mus musculus)
labelValue: f

chemicalString: CC[C@@H](NC(=O)c1ccc(Cl)cc1)[C@H]1CC[C@H](c2cccc(=O)n2C)CC1
experimentalTarget: Indoleamine 2,3-dioxygenase 1 (Mus musculus)
labelValue: f

Req: Please let me know if "CC[C@@H](NC(=O)c1ccc(OC)nc1)[C@H]1CC[C@@H](c2ccnc(OC)c2C(F)F)CC1" shows IC50 below 20 nM.
Resp: t

---

The entries below come with measured IC50 values attached.
- experimentalTarget: Indoleamine 2,3-dioxygenase 1 (Mus musculus)
- procedureText: Inhibition of IDO1 in IFNgamma-stimulated mouse M109 cells preincubated for 2 hrs followed by recombinant murine IFNgamma stimulation and measured after 18 hrs by fluorescence based microplate reader assay
Give the value, in units of nM, as a plain number.

Use the examples below as a reference point.
chemicalString: Cc1nccc([C@H]2CC[C@@H]([C@@H](C)NC(=O)c3ccc(Cl)cc3)CC2)c1C
experimentalTarget: Indoleamine 2,3-dioxygenase 1 (Mus musculus)
IC50 [nM]: 6

chemicalString: Cc1cnccc1[C@H]1CC[C@@H]([C@@H](C)NC(=O)c2ccc(Cl)cc2)CC1
experimentalTarget: Indoleamine 2,3-dioxygenase 1 (Mus musculus)
IC50 [nM]: 3

# input for lookup
Req: Write down the reported IC50 of "CC[C@@H](NC(=O)c1ccc(Cl)cc1)[C@H]1CC[C@@H](c2ccnc(OC)c2F)CC1" , test system: Indoleamine 2,3-dioxygenase 1 (Mus musculus).
Resp: 22
